Origin of values: patent US20170052184A1

Reported values of Reactivity (OD 492 nm) for individual entries
Biological target: T1, HCV bt-151-171 (Peptide 3, HCVc 151-171) (Hepatitis C virus (numbering per HCV-1), biotin (carboxy-terminal per; N-terminal per))
T1 peptide: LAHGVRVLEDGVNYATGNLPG
Assay: EIA, captured mAb + biotin peptide
readout-name: Reactivity (OD 492 nm) (OD units)

binder	reported
HCV 208B-178 (antibody, V domains shown) VH: DVKLVESGGGLVKLGGSLKLSCAASGFTFSSYYMSWVRQTPEKRLELVAAINSNGGSTYYPDTVKGRFTISRDNAKNTLYLQMSSLKSEDTALYYCARHGGLGRRDWYFDVWGAGTTVTVSS VL: DIVLTQSPASLAVSLGQRATISCRASESVDNYGISFMHWYQQKPGQPPKLLIYRASNLESGIPARFSGSGSRTDFTLTINPVETDDVATYYCQQSNKDPFTFGSGAKLEIKR	1.69
HCV 208B-672 (antibody, V domains shown) VH: EVKLVESGGSLVQPGGSLKLSCAASGFNFNTYAMSWVRQTPEKRLEWVAYISNGGGNTYYVDTVKGRFTISRDNAKNTLYLRMSSLKSEDTAMYYCARHGLYWGYSMDYWGQGTSVTVSS VL: DIQMTQSPSSLSASLGERVSLTCRASQDIGGSINWLQQEPDGTIKRLIYATSSLDSGVPKRFSGSRSGSDYSLTISSLESEDFVDYYCLQYASSPPTFGGGTKLEIKR	0.1
HCV 208A-442 (antibody, V domains shown) VH: DVQLQESGPGLVNPSQSLSLTCSVTGYSITSGYYWIWIRQFPGNKLEWMGYIKYDGGNNYSPSLKNRISIARDTSKNQFFLKLNSVTIEDTATYYCTRGSDSFDYWGQGTTLTVSS VL: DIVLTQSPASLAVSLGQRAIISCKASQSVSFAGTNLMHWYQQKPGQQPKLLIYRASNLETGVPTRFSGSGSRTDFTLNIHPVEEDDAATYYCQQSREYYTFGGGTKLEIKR	0.06
